# Measured Target: T1, recombinant human DLL4 (Cat# 1506-D4/CF, R&D Systems) (human, UniProt Q9NR61 27-529)
# T1 construct: Bought protein; also called hDLL4; rHuman DLL4
# Test Description: ELISA, DLL4 coated, Fab 3.70 nM
Measurement Name: ELISA absorbance at 450 nm

# Binder, Value
records = [
    ("Fab VH5-51_IGHD5-18*01>3_IGHJ4*01 G100K/G104T G24T/S28R/G35V & V3-4_IGLJ1*01 V91L/S96P S52M (Fab, V domains shown, Fab made in E. coli: VH on CH1 with His6 and Flag tags (Plasmid A), VL on lambda CL (Plasmid E); also called H: KT TRV & L: LP S52M) VH: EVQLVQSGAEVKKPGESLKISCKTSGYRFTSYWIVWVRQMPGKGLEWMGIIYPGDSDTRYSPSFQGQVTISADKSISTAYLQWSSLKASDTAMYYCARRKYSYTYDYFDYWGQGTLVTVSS VL: QTVVTQEPSFSVSPGGTVTLTCGLSSGSVSTSYYPSWYQQTPGQAPRTLIYMTNTRSSGVPDRFSGSILGNKAALTITGAQADDESDYYCLLYMGPGISYVFGTGTKVTVL", "0.03 A450"),
    ("Fab VH5-51_IGHD5-18*01>3_IGHJ4*01 G100K/G104T G24T/S28R/G35V & V3-4_IGLJ1*01 (Fab, V domains shown, Fab made in E. coli: VH on CH1 with His6 and Flag tags (Plasmid A), VL on lambda CL (Plasmid E); also called H: KT TRV & L: wt) VH: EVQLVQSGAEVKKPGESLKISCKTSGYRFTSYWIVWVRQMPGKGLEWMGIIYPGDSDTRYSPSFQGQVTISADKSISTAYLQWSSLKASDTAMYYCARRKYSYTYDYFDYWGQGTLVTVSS VL: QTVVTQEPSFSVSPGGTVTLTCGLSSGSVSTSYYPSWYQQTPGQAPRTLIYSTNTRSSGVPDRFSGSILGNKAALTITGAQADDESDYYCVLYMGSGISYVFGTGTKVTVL", "0.03 A450"),
    ("Fab VH5-51_IGHD5-18*01>3_IGHJ4*01 G100K/G104T G24T/S28R/G35V & V3-4_IGLJ1*01 V91L/S96P S52G (Fab, V domains shown, Fab made in E. coli: VH on CH1 with His6 and Flag tags (Plasmid A), VL on lambda CL (Plasmid E); also called H: KT TRV & L: LP S52G) VH: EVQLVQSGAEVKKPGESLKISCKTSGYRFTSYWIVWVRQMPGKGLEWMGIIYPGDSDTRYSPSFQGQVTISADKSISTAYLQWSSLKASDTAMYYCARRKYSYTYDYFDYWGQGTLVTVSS VL: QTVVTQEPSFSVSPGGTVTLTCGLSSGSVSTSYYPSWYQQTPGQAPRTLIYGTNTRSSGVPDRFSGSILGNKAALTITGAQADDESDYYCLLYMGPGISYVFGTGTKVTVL", "0.06 A450"),
    ("Fab VH5-51_IGHD5-18*01>3_IGHJ4*01 G100K/G104T G24T/S28R/G35V & V3-4_IGLJ1*01 V91L/S96P (Fab, V domains shown, Fab made in E. coli: VH on CH1 with His6 and Flag tags (Plasmid A), VL on lambda CL (Plasmid E); also called H: KT TRV & L: LP) VH: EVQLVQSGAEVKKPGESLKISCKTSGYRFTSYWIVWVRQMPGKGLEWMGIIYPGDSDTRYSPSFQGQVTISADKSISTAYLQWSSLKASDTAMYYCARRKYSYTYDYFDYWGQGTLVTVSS VL: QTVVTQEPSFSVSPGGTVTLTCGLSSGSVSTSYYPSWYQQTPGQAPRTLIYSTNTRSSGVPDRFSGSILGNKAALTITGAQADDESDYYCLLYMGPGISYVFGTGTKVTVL", "0.03 A450"),
]
